# Test system: 598228-144-R-J1-PDC complex spheroid viability
# Assay Notes: Anticancer human tumor 598228-144-R-J1-PDC patient-derived serous endometrial adenocarcinoma cell line growth inhibition [GQUAD]
# Cond: second compound 1 µM; first compound 0.1 µM; stronger effect = lower value
// reported viability, T/C per item
# value in %; strip the unit string

# annotated cases, reported viability, T/C shown
Compound	Unit Text	viability, T/C
CC1COCCN1c1cc(C2(O)CC3CCC(C2)O3)c2cnn(-c3ccn[nH]3)c2n1 (stereo not given) + CN(C)c1ccc(Nc2c3ccc(NC(=O)CCN4CCCC4)cc3nc3cc(NC(=O)CCN4CCCC4)ccc23)cc1	%	44.6
CC(C)n1c(=O)n(C)c2cnc3cc(F)c(-c4ccc(OCCCN5CCCCC5)nc4)cc3c21 + CN(C)c1ccc(Nc2c3ccc(NC(=O)CCN4CCCC4)cc3nc3cc(NC(=O)CCN4CCCC4)ccc23)cc1	%	87.4
O=C(NO)c1cnc(N2CCN(S(=O)(=O)c3ccc4ccccc4c3)CC2)nc1 + CN(C)c1ccc(Nc2c3ccc(NC(=O)CCN4CCCC4)cc3nc3cc(NC(=O)CCN4CCCC4)ccc23)cc1	%	56.6
C#Cc1c(F)ccc2cc(O)cc(-c3ncc4c(N5CC6CCC(C5)N6)nc(OCC56CCCN5CC(F)C6)nc4c3F)c12 (stereo not given) + Cc1[nH]c2ccc(F)cc2c1-c1nc2c3cccnc3c3ncccc3c2[nH]1	%	59.1
CC(C)n1c(=O)n(C)c2cnc3cc(F)c(-c4ccc(OCCCN5CCCCC5)nc4)cc3c21 + Cc1[nH]c2ccc(F)cc2c1-c1nc2c3cccnc3c3ncccc3c2[nH]1	%	60.6
CC1COCCN1c1cc(C2(S(C)(=N)=O)CC2)nc(-c2ccnc3[nH]ccc23)n1 (stereo not given) + Cc1[nH]c2ccc(F)cc2c1-c1nc2c3cccnc3c3ncccc3c2[nH]1	%	59.7

Sure, the documented viability, T/C for CCCS(=O)(=O)Nc1ccc(F)c(C(=O)c2c[nH]c3ncc(-c4ccc(Cl)cc4)cc23)c1F + CN(C)c1ccc(Nc2c3ccc(NC(=O)CCN4CCCC4)cc3nc3cc(NC(=O)CCN4CCCC4)ccc23)cc1 is 99.2

Sure, the documented viability, T/C for COc1cc(C2c3cc4c(cc3C(OC3OC5COC(C)OC5C(O)C3O)C3COC(=O)C23)OCO4)cc(OC)c1O (stereo not given) + CN(C)c1ccc(Nc2c3ccc(NC(=O)CCN4CCCC4)cc3nc3cc(NC(=O)CCN4CCCC4)ccc23)cc1 is 114

Sure, the documented viability, T/C for O=c1[nH]cc(F)c(=O)[nH]1 + Cc1[nH]c2ccc(F)cc2c1-c1nc2c3cccnc3c3ncccc3c2[nH]1 is 66.9

Sure, the documented viability, T/C for CC(=O)O[C@H]1C(=O)[C@@]2(C)[C@H]([C@H](OC(=O)c3ccccc3)[C@]3(O)C[C@H](OC(=O)[C@H](O)[C@@H](NC(=O)c4ccccc4)c4ccccc4)C(C)=C1C3(C)C)[C@]1(OC(C)=O)CO[C@@H]1C[C@@H]2O + Cc1cnc(CNC(=O)c2c(=O)c3ccc(N4CCCN(C)CC4)nc3n3c2sc2ccccc23)cn1 is 59.9

----------
# Tested on: 598228-144-R-J1-PDC complex spheroid viability
# Assay Notes: Anticancer human tumor 598228-144-R-J1-PDC cell line growth inhibition [GQUAD];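 also: spheroids exposed to the agents for one week before reading; percent of vehicle DMSO control viability so 100% = untreated growth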
# Cond: second compound 0.0316 µM; first compound 10 µM; stronger effect = lower value
Quantity Name: viability, T/C (%)
# value in %; strip the unit string

Compound	Target Of Assay	viability, T/C / %
C=CC(=O)N1CCN(c2nc(=O)n(-c3c(C)ccnc3C(C)C)c3nc(-c4c(O)cccc4F)c(F)cc23)C(C)C1 (stereo not given) + Cc1[nH]c2ccc(F)cc2c1-c1nc2c3cccnc3c3ncccc3c2[nH]1	598228-144-R-J1-PDC complex spheroid viability	123
CC(C)(O)C1CCC(Nc2ccc3ncc(-c4cccc(C(F)(F)F)c4)n3n2)CC1 (stereo not given) + Cc1cnc(CNC(=O)c2c(=O)c3ccc(N4CCCN(C)CC4)nc3n3c2sc2ccccc23)cn1	598228-144-R-J1-PDC complex spheroid viability	17.8
COc1ccc([C@@H](O)c2cc(-c3ncnc4cc(N5CCOCC5)ccc34)c(F)cc2Cl)nn1 + Cc1[nH]c2ccc(F)cc2c1-c1nc2c3cccnc3c3ncccc3c2[nH]1	598228-144-R-J1-PDC complex spheroid viability	29.1

Sure, the documented viability, T/C for COc1cccc2c1C(=O)c1c(O)c3c(c(O)c1C2=O)CC(O)(C(=O)CO)CC3OC1CC(N)C(O)C(C)O1 (stereo not given) + CN(C)c1ccc(Nc2c3ccc(NC(=O)CCN4CCCC4)cc3nc3cc(NC(=O)CCN4CCCC4)ccc23)cc1 is 0.57

Sure, the documented viability, T/C for CC1COCCN1c1cc(-c2ccnn2C)c2ccnc(-c3ccn[nH]3)c2n1 (stereo not given) + CN(C)c1ccc(Nc2c3ccc(NC(=O)CCN4CCCC4)cc3nc3cc(NC(=O)CCN4CCCC4)ccc23)cc1 is 45.2

Sure, the documented viability, T/C for CC1COCCN1c1cc(C2(O)CC3CCC(C2)O3)c2cnn(-c3ccn[nH]3)c2n1 (stereo not given) + CN(C)c1ccc(Nc2c3ccc(NC(=O)CCN4CCCC4)cc3nc3cc(NC(=O)CCN4CCCC4)ccc23)cc1 is 13.9

Sure, the documented viability, T/C for O=C(NO)c1cnc(N2CCN(S(=O)(=O)c3ccc4ccccc4c3)CC2)nc1 + CN(C)c1ccc(Nc2c3ccc(NC(=O)CCN4CCCC4)cc3nc3cc(NC(=O)CCN4CCCC4)ccc23)cc1 is 0.27

Sure, the documented viability, T/C for O=C(c1cc(Cc2n[nH]c(=O)c3ccccc23)ccc1F)N1CCN(C(=O)C2CC2)CC1 + Cc1cnc(CNC(=O)c2c(=O)c3ccc(N4CCCN(C)CC4)nc3n3c2sc2ccccc23)cn1 is 63.2

Sure, the documented viability, T/C for CCCS(=O)(=O)Nc1ccc(F)c(C(=O)c2c[nH]c3ncc(-c4ccc(Cl)cc4)cc23)c1F + Cc1cnc(CNC(=O)c2c(=O)c3ccc(N4CCCN(C)CC4)nc3n3c2sc2ccccc23)cn1 is 26.9

Sure, the documented viability, T/C for CC(=O)O[C@H]1C(=O)[C@@]2(C)[C@H]([C@H](OC(=O)c3ccccc3)[C@]3(O)C[C@H](OC(=O)[C@H](O)[C@@H](NC(=O)c4ccccc4)c4ccccc4)C(C)=C1C3(C)C)[C@]1(OC(C)=O)CO[C@@H]1C[C@@H]2O + Cc1[nH]c2ccc(F)cc2c1-c1nc2c3cccnc3c3ncccc3c2[nH]1 is 39.8
